Tested on: OPM2
Experiment: MTT cell proliferation assay, PU-H71 titration
Type: cell-based
Settings: Homo sapiens, OPM-2, OPM2 myeloma cell line, 72 hours, without thrombin
PROPERTY: pIC50
Answer as the number alone; pIC50 is minus log10 of concentration in mol/L.

Notebook: CC(C)NCCCn1c(Sc2cc3c(cc2I)OCO3)nc2c(N)ncnc21 [PU-H71] , pIC50 read as 6.38

====

Test system: H929
Assay: MTT cell proliferation assay, PU-H71 titration
Format: cell-based
Conditions: Homo sapiens, NCI-H929, H929 myeloma cell line, 72 hours, without thrombin
Method: Cell growth inhibition of an anticancer agent (PU-H71) (6) was tested in a panel of myeloma cell lines. HMCLs were treated with a titration of the anti-cancer reagent PU-H71 (0 to 4,000 nM) in vitro for 72 hours. The MTT assay was utilized to detect proliferation of each cell line. The half maximal inhibitory concentration (IC50) of PU-H71 was calculated using OriginPro 7.5 statistic software.
PROPERTY: IC50 (nM)
Express your answer in nM, writing the number without its unit.

Documented IC50 of CC(C)NCCCn1c(Sc2cc3c(cc2I)OCO3)nc2c(N)ncnc21 [PU-H71] : 210
